TARGET_OR_TEST_SYSTEM: Ba/F3 EGFR-Del19/T790M (Homo sapiens, UniProt P00533, T790M, cells depend on it, form not given)
Sequence (P00533 with tags, fused parts or gaps DEL746-750/T790M, form open): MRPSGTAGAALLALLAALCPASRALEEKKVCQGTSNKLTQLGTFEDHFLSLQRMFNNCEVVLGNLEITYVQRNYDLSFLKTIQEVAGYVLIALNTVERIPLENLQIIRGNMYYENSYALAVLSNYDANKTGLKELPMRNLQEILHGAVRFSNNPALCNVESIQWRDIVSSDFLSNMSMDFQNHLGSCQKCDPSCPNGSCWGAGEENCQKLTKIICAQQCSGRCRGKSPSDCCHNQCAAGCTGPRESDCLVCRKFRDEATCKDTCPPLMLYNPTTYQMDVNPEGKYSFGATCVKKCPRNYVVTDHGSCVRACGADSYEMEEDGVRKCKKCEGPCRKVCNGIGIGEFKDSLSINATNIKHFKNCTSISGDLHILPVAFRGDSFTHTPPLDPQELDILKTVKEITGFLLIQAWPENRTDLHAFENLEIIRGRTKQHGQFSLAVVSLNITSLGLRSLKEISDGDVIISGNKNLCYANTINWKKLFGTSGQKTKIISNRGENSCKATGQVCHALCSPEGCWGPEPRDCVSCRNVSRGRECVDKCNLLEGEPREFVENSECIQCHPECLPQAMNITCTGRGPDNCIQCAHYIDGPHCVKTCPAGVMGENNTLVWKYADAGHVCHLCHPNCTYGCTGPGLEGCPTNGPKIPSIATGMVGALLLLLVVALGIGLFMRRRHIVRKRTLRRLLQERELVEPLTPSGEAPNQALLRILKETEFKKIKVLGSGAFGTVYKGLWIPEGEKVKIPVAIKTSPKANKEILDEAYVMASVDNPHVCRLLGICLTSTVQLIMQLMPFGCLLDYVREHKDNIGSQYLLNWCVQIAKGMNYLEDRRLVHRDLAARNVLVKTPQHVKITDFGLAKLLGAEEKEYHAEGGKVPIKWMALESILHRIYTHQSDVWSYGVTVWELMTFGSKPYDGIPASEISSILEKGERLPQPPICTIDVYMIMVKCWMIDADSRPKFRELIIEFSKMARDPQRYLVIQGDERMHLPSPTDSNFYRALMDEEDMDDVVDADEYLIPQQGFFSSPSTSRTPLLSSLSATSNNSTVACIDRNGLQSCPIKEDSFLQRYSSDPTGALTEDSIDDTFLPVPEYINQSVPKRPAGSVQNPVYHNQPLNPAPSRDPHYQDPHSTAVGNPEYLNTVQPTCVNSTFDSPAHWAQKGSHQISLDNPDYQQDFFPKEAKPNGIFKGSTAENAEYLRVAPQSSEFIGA
PROCEDURE_SUMMARY: Ba/F3 viability assay (CellTiter-Glo), BAF3 DT
Type: cell-based
CONDITION_DETAILS: Ba/F3 EGFR-Del19/T790M cell viability
MEASURE: GI50

[[record]]
compound = "Cc1cc2cc(n1)-c1cnn(C)c1CCC[C@@H](C)CN1/C(=N/C2=O)Nc2ccc(N3CCC(N4CC[C@H](N(C)C)C4)CC3)cc21 [(4)]"
result = "< 50 nM"

[[record]]
compound = "Cc1cc2cc(n1)-c1cnn(C)c1CCCCCCN1/C(=N/C2=O)Nc2ccc(N(C)CCN(C)C)cc21 [(40)]"
result = "< 50 nM"

[[record]]
compound = "Cc1cc2cc(n1)-c1cnn(C)c1CCCCCN1/C(=N/C2=O)Nc2ccc(CN3CCN(C)CC3)cc21 [(69)]"
result = "< 50 nM"

[[record]]
compound = "Cc1cc2cc(n1)-c1cnn(C)c1-c1cccc(c1)CN1/C(=N/C2=O)Nc2ccc(CN3CCN(C)CC3)cc21 [(61)]"
result = "100 to 1000 nM"

[[record]]
compound = "Cc1cc2cc(n1)-c1cnn(C)c1CCC[C@@H](C)CN1/C(=N/C2=O)Nc2ccc(N3C[C@@H](C)N(C)[C@@H](C)C3)cc21 [(11)]"
result = "< 50 nM"

[[record]]
compound = "Cc1cc2cc(n1)-c1cnn(C)c1CCC[C@@H](C)CN1/C(=N/C2=O)Nc2ccc(OC3CCNCC3)cc21 [(15)]"
result = "< 50 nM"

[[record]]
compound = "Cc1cc2cc(n1)-c1cnn(C)c1CCC[C@@H](C)CN1/C(=N/C2=O)Nc2ccc(N3CCC(N4CCOCC4)CC3)cc21 [(24)]"
result = "< 50 nM"

